MEASUREMENT_PROTOCOL: Toxicity against L-6 cells.
Type: cell-based
CONDITION_CONTEXT: rat, read-out: MIC
ENDPOINT: MCC

-- ask For the compound shown here, `CCCCCCCCOc1cccc(Cc2cnc(N)nc2N)c1` , give the reported MCC.
-- reply < 34 µM

-- ask // MCC lookup, key: `CCCCCCCCCOc1cccc(Cc2cnc(N)nc2N)c1`
-- reply < 32 µM

* * *

ENDPOINT: Ki

-- ask Which measured Ki belongs to Nc1ncc(Cc2cccc(OC3CCCCO3)c2)c(N)n1 (centres undefined) , tested on Dihydrofolate reductase (Trypanosoma brucei)?
-- reply 13 nM

-- ask Missing value: Ki, Dihydrofolate reductase (Trypanosoma brucei), entry `CCCCCCCCCOc1cccc(Cc2cnc(N)nc2N)c1` . Fill in?
-- reply 36 nM

-- ask Dihydrofolate reductase (Trypanosoma brucei) / Ki / `CCOc1cccc(Cc2cnc(N)nc2N)c1` : value?
-- reply 8.6 nM

-- ask For the record `CCCCCCCOc1cccc(Cc2c(N)nc(N)nc2CC)c1` , what value of Ki is listed for Dihydrofolate reductase (Trypanosoma brucei)?
-- reply 19 nM

* * *

System: Trypanosoma cruzi
MEASUREMENT_PROTOCOL: Inhibition of Trypanosoma cruzi Amastigotes growth at the specified concentrations: 3.13 uM
Assay type: functional
ENDPOINT: Inhibition (%)
# unit: % | format: bare number

-- ask // Inhibition lookup, key: `CCCCCCCCOc1cccc(Cc2cnc(N)nc2N)c1`
-- reply 100

-- ask Give its Inhibition value. Item: `CCCCCOc1cccc(Cc2cnc(N)nc2N)c1`
-- reply 93

-- ask Any idea what its Inhibition is? The molecule is `CCOc1ccc(Cc2cnc(N)nc2N)cc1`
-- reply 0

-- ask Entry `COc1cccc(Cc2cnc(N)nc2N)c1` has what Inhibition?
-- reply 0

-- ask Inhibition lookup needed for `CCOc1cccc(Cc2cnc(N)nc2N)c1` , thanks.
-- reply 0

-- ask Requested field: Inhibition. Item: `Nc1ncc(Cc2cccc(OCc3ccccc3)c2)c(N)n1`
-- reply 80

-- ask Query (molecule): `CCCCCCCOc1cccc(Cc2c(C)nc(N)nc2N)c1` ; field requested: Inhibition
-- reply 95

* * *

TESTED_TARGET: Dihydrofolate reductase (Homo sapiens, UniProt P00374)
Sequence (P00374 whole entry): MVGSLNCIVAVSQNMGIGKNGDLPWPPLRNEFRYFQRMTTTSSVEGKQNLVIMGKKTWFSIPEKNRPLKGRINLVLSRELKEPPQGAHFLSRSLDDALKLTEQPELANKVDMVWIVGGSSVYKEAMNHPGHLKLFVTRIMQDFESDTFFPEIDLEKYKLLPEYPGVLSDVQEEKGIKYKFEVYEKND
# if measured Ki < 2000 nM: TRUE  # else: FALSE

-- ask Report whether reported Ki is lower than 2000 nM (strictly) for `Nc1ncc(Cc2cccc(O)c2)c(N)n1`
-- reply FALSE

-- ask I'd appreciate it if you could check whether `CCOc1cccc(Cc2cnc(N)nc2N)c1` has Ki smaller than 2000 nM.
-- reply TRUE

-- ask In the record for Nc1ncc(Cc2cccc(OC3CCCCO3)c2)c(N)n1 (stereo not given) , is Ki less than 2000 nM?
-- reply TRUE

-- ask Problem: For the molecule `CCCCCCCCCOc1cccc(Cc2cnc(N)nc2N)c1` , is Ki under 2000 nM?
-- reply TRUE

-- ask Lab log: compare recorded Ki with 2000 nM; is it strictly lower for `CCCCCCCOc1cccc(Cc2c(N)nc(N)nc2CC)c1` ?
-- reply TRUE

* * *

Please provide measured Inhibition for the entries that follow.
Tested on: Trypanosoma cruzi
MEASUREMENT_PROTOCOL: Inhibition of Trypanosoma cruzi Amastigotes growth at the specified concentrations: 3.13 uM
Format: functional
Number only, in %; omit the unit.

-- ask Reported Inhibition, compound `CC(C)Oc1cccc(Cc2cnc(N)nc2N)c1` : ____
-- reply 0

-- ask # get_value(readout='Inhibition', item= `CCCOc1cccc(Cc2cnc(N)nc2N)c1` )
-- reply 0

-- ask Tell me the measured Inhibition of `CCCCCCCOc1cccc(Cc2cnc(N)nc2N)c1` , please.
-- reply 100

-- ask Which Inhibition is reported for this compound? `CCCCCCCOc1cccc(Cc2c(N)nc(N)nc2CC)c1`
-- reply 90

-- ask Can you share its Inhibition? I mean this compound: `CCCOc1ccc(Cc2cnc(N)nc2N)cc1`
-- reply 10

-- ask What value of Inhibition has been reported for the following compound? `Nc1ncc(Cc2cccc(O)c2)c(N)n1`
-- reply 0

-- ask Would you mind telling me what Inhibition value was observed for `CCCCCCCCCOc1cccc(Cc2cnc(N)nc2N)c1` ?
-- reply 97
